Data provenance: PubChem BioAssay AID588598

Target: Sentrin-specific protease 6 (Homo sapiens)
Assay: inhibition of human SENP6 catalytic domain – biochemical, luminescence, set 2, SAR follow-up (AID 588598)
Settings: recombinant SENP6, Z-RLRGG-aminoluciferin cleavage, 30 min
quantity-name: pIC50
Answers are plain numbers, as −log10 of the molar value.

`O=C(Nc1nc2ccc(Cl)cc2s1)c1cccs1` yielded pIC50 of 5.89
